- assayed-target: recombinant human Bcl-2 D103Y protein (Homo sapiens (Human), UniProt P10415, D103Y)
- Sequence (P10415 whole entry D103Y): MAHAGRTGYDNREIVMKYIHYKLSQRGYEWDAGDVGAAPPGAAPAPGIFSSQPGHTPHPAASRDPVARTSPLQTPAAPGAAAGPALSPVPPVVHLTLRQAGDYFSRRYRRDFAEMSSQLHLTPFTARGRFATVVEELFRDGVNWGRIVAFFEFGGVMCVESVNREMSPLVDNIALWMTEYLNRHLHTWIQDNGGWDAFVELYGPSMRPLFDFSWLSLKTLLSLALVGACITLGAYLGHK
- assay-text: Bcl-2-D103Y Biochemical Assay (TR-FRET)
- Assay type: binding
- study-conditions: ratio of IC50
Provide the recorded Ratio of Bcl-2 D103Y/Bcl-2 WT for the entries that follow.
Answer with a number only.

Q. Item CC(C)c1ccccc1C1CN(Cc2ccc(F)c(F)c2)CCN1C1CC2(CCN(c3ccc(C(=O)NS(=O)(=O)c4ccc(NC[C@H]5CC[C@](C)(O)CC5)c([N+](=O)[O-])c4)c(Oc4cnc5[nH]ccc5c4)c3)CC2)C1 (stereo partly shown) has what recorded Ratio of Bcl-2 D103Y/Bcl-2 WT?
A. 2.5

Q. What Ratio of Bcl-2 D103Y/Bcl-2 WT value was documented for this compound, COc1ccc(CN2CCN(C3CC4(CCN(c5ccc(C(=O)NS(=O)(=O)c6ccc(NC[C@H]7CC[C@](C)(O)CC7)c([N+](=O)[O-])c6)c(Oc6cnc7[nH]ccc7c6)c5)CC4)C3)[C@H](c3ccccc3C(C)C)C2)cc1 [Example 19a] ?
A. 2.6

Q. For the compound COc1ccc(CN2CCN(C3CC4(CCN(c5ccc(C(=O)NS(=O)(=O)c6ccc(NC[C@H]7CC[C@](C)(O)CC7)c([N+](=O)[O-])c6)c(Oc6cnc7[nH]ccc7c6)c5)CC4)C3)C(c3ccccc3C(C)C)C2)cc1OC (stereo partly shown) , what Ratio of Bcl-2 D103Y/Bcl-2 WT is on record?
A. 2.2

Q. Which measured Ratio of Bcl-2 D103Y/Bcl-2 WT value corresponds to CC(C)c1ccccc1C1CN(Cc2ccc(F)cc2F)CCN1C1CC2(CCN(c3ccc(C(=O)NS(=O)(=O)c4ccc(NC[C@H]5CC[C@](C)(O)CC5)c([N+](=O)[O-])c4)c(Oc4cnc5[nH]ccc5c4)c3)CC2)C1 (stereo partly shown) ?
A. 6.6

Q. Give the measured Ratio of Bcl-2 D103Y/Bcl-2 WT of CC(C)c1ccccc1C1CN(Cc2ccc(N(C)C)cc2)CCN1C1CC2(CCN(c3ccc(C(=O)NS(=O)(=O)c4ccc(NC[C@H]5CC[C@](C)(O)CC5)c([N+](=O)[O-])c4)c(Oc4cnc5[nH]ccc5c4)c3)CC2)C1 (stereo partly shown) .
A. 3.4

Q. If you can, please state the reported Ratio of Bcl-2 D103Y/Bcl-2 WT value of CC(C)c1ccccc1C1CN(Cc2ccoc2)CCN1C1CC2(CCN(c3ccc(C(=O)NS(=O)(=O)c4ccc(NC[C@H]5CC[C@](C)(O)CC5)c([N+](=O)[O-])c4)c(Oc4cnc5[nH]ccc5c4)c3)CC2)C1 (stereo partly shown) .
A. 4.6

Q. So what's the measured Ratio of Bcl-2 D103Y/Bcl-2 WT for this one? COc1ccc(CN2CCN(C3CC4(CCN(c5ccc(C(=O)NS(=O)(=O)c6ccc(OCC7CCC(C)(O)CC7)c([N+](=O)[O-])c6)c(Oc6cnc7[nH]ccc7c6)c5)CC4)C3)[C@H](c3ccccc3C(C)C)C2)cc1 (stereo partly shown)
A. 1.3

Q. May I ask what Ratio of Bcl-2 D103Y/Bcl-2 WT has been recorded for COc1cc(CN2CCN(C3CC4(C3)CN(c3ccc(C(=O)NS(=O)(=O)c5ccc(NC[C@H]6CC[C@](C)(O)CC6)c([N+](=O)[O-])c5)c(Oc5cnc6[nH]ccc6c5)c3)C4)[C@H](c3ccccc3C(C)C)C2)cc2c1OCCC2 ?
A. 0.9

Q. Entry under review: C#Cc1ccc(CN2CCN(C3CC4(CCN(c5ccc(C(=O)NS(=O)(=O)c6ccc(NC[C@H]7CC[C@](C)(O)CC7)c([N+](=O)[O-])c6)c(Oc6cnc7[nH]ccc7c6)c5)CC4)C3)C(c3ccccc3C(C)C)C2)cc1OC (stereo partly shown) . Reported Ratio of Bcl-2 D103Y/Bcl-2 WT?
A. 1.6

Q. Which Ratio of Bcl-2 D103Y/Bcl-2 WT is reported for this compound? COc1ccc(CN2CCN(C3CC4(CCN(c5ccc(C(=O)NS(=O)(=O)c6ccc(NC[C@H]7CC[C@](C)(O)CC7)c([N+](=O)[O-])c6)c(Oc6cnc7[nH]ccc7c6)c5)CC4)C3)[C@H](c3ccccc3C(C)C)C2)c(OC)c1 (single isomer, unassigned) [Example 48a]
A. 2.3

Q. Quick one: Ratio of Bcl-2 D103Y/Bcl-2 WT for CC(C)c1ccccc1C1CN(Cc2ccc3occc3c2)CCN1C1CC2(CCN(c3ccc(C(=O)NS(=O)(=O)c4ccc(NC[C@H]5CC[C@](C)(O)CC5)c([N+](=O)[O-])c4)c(Oc4cnc5[nH]ccc5c4)c3)CC2)C1 (stereo partly shown) ?
A. 5.6

Q. Which Ratio of Bcl-2 D103Y/Bcl-2 WT reading was recorded for the compound COC1C2CC3CCC(CN4CCN(C5CC6(C5)CN(c5ccc(C(=O)NS(=O)(=O)c7ccc(NC[C@H]8CC[C@](C)(O)CC8)c([N+](=O)[O-])c7)c(Oc7cnc8[nH]cc(F)c8c7)c5)C6)[C@H](c5ccccc5C(C)C)C4)(C2)CC31 (stereo partly shown) ?
A. 5.8

Q. Request the reported Ratio of Bcl-2 D103Y/Bcl-2 WT associated with [2H]C([2H])([2H])Oc1ccc(CN2CCN(C3CC4(C3)CN(c3ccc(C(=O)NS(=O)(=O)c5ccc(NC[C@H]6CC[C@](C)(O)CC6)c([N+](=O)[O-])c5)c(Oc5cnc6[nH]ccc6c5)c3)C4)[C@H](c3ccccc3C(C)C)C2)cc1OC([2H])([2H])[2H]
A. 1

Q. Dear colleague, I am looking for the recorded Ratio of Bcl-2 D103Y/Bcl-2 WT of the following compound: CC(C)c1ccccc1C1CN(C2COC2)CCN1C1CC2(CCN(c3ccc(C(=O)NS(=O)(=O)c4ccc(NC[C@H]5CC[C@](C)(O)CC5)c([N+](=O)[O-])c4)c(Oc4cnc5[nH]ccc5c4)c3)CC2)C1 (stereo partly shown)
A. 24

Q. Which Ratio of Bcl-2 D103Y/Bcl-2 WT is reported for this compound? CC(C)c1ccccc1C1CN(Cc2cnn(C)c2)CCN1C1CC2(CCN(c3ccc(C(=O)NS(=O)(=O)c4ccc(NC[C@H]5CC[C@](C)(O)CC5)c([N+](=O)[O-])c4)c(Oc4cnc5[nH]ccc5c4)c3)CC2)C1 (stereo partly shown)
A. 9.2

Q. Record request: Ratio of Bcl-2 D103Y/Bcl-2 WT value, item COc1cc(CN2CCN(C3CC4(C3)CN(c3ccc(C(=O)NS(=O)(=O)c5ccc(NC[C@H]6CC[C@](C)(O)CC6)c([N+](=O)[O-])c5)c(Oc5cnc6[nH]cc(F)c6c5)c3)C4)[C@H](c3ccccc3C(C)C)C2)ccc1F
A. 1

###

- assayed-target: recombinant human Bcl-2 D103Y protein (Homo sapiens (Human), UniProt P10415, D103Y)
- assay-text: Bcl-2-D103Y Biochemical Assay (TR-FRET)
- Type: binding
- study-conditions: ratio of IC50
1 means recorded Ratio of Bcl-2 D103Y/Bcl-2 WT is 2 or above; -1 means it is below 2.

Q. Record COCCN1CCN(C2CC3(CCN(c4ccc(C(=O)NS(=O)(=O)c5cc6c(c([N+](=O)[O-])c5)N[C@H](C[C@H]5CC[C@H](O)CC5)CO6)c(Oc5cnc6[nH]ccc6c5)c4)CC3)C2)C(c2ccccc2C(C)C)C1 (stereo partly drawn) ; criterion: Ratio of Bcl-2 D103Y/Bcl-2 WT no lower than 2. Met?
A. 1

Q. Tell me whether Ratio of Bcl-2 D103Y/Bcl-2 WT is at least 2 here: [2H]C([2H])([2H])Oc1ccc(CN2CCN(C3CC4(C3)CN(c3ccc(C(=O)NS(=O)(=O)c5ccc(NC[C@H]6CC[C@](C)(O)CC6)c([N+](=O)[O-])c5)c(Oc5cnc6[nH]cc(F)c6c5)c3)C4)[C@H](c3ccccc3C(C)C)C2)cc1
A. -1

Q. Ratio of Bcl-2 D103Y/Bcl-2 WT >= 2 for CC(C)c1ccccc1C1CN(Cc2cccc3c2OCCO3)CCN1C1CC2(CCN(c3ccc(C(=O)NS(=O)(=O)c4ccc(NC[C@H]5CC[C@](C)(O)CC5)c([N+](=O)[O-])c4)c(Oc4cnc5[nH]ccc5c4)c3)CC2)C1 (stereo partly drawn) ?
A. -1

Q. Form field: Ratio of Bcl-2 D103Y/Bcl-2 WT at least 2? Entry: COc1cc(CN2CCN(C3CC4(C3)CN(c3ccc(C(=O)NS(=O)(=O)c5ccc(NC[C@H]6CC[C@](C)(O)CC6)c([N+](=O)[O-])c5)c(Oc5cnc6[nH]ccc6c5)c3)C4)[C@H](c3ccccc3C(C)C)C2)cnc1OC
A. -1

Q. API: above_or_equal(metric=Ratio of Bcl-2 D103Y/Bcl-2 WT, cutoff=2) for item CC(C)c1ccccc1[C@@H]1CN(Cc2ccc3c(c2)OCC3)CCN1C1CC2(CCN(c3ccc(C(=O)NS(=O)(=O)c4ccc(NC[C@H]5CC[C@](C)(O)CC5)c([N+](=O)[O-])c4)c(Oc4cnc5[nH]ccc5c4)c3)CC2)C1
A. -1

Q. Record [2H]C([2H])([2H])Oc1ccc(CN2CCN(C3CC4(CCN(c5ccc(C(=O)NS(=O)(=O)c6ccc(NC[C@H]7CC[C@](C)(O)CC7)c([N+](=O)[O-])c6)c(Oc6cnc7[nH]cc(F)c7c6)c5)CC4)C3)[C@H](c3ccccc3C(C)C)C2)cc1OC([2H])([2H])[2H] ; criterion: Ratio of Bcl-2 D103Y/Bcl-2 WT no lower than 2. Met?
A. -1

Q. Given CC(C)c1ccccc1C1CN(Cc2ccc3c(c2)CCCO3)CCN1C1CC2(CCN(c3ccc(C(=O)NS(=O)(=O)c4ccc(NC[C@H]5CC[C@](C)(O)CC5)c([N+](=O)[O-])c4)c(Oc4cnc5[nH]ccc5c4)c3)CC2)C1 (stereo partly drawn) , state whether its Ratio of Bcl-2 D103Y/Bcl-2 WT is at least 2.
A. 1

Q. Could you tell me if the measured Ratio of Bcl-2 D103Y/Bcl-2 WT of COc1ccc(CN2CCN(C3CC4(C3)CN(c3ccc(C(=O)NS(=O)(=O)c5ccc(NC[C@H]6CC[C@](C)(O)CC6)c([N+](=O)[O-])c5)c(Oc5cnc6[nH]ccc6c5)c3)C4)[C@H](c3ccccc3C(C)C)C2)cc1OC reaches 2 or more?
A. -1

Q. State whether the measured Ratio of Bcl-2 D103Y/Bcl-2 WT reaches 2, counting equality as reaching it, for COc1ccc(CN2CCN(C3CC4(CCN(c5ccc(C(=O)NS(=O)(=O)c6ccc(NCC7CCC(CO)O7)c([N+](=O)[O-])c6)c(Oc6cnc7[nH]ccc7c6)c5)CC4)C3)[C@H](c3ccccc3C(C)C)C2)cc1 (stereo partly drawn)
A. -1

Q. Decide: is the reported value of Ratio of Bcl-2 D103Y/Bcl-2 WT for COc1ccc(CN2CCN(C3CC4(C3)CN(c3ccc(C(=O)NS(=O)(=O)c5ccc(NCC67CC8CC(C6)CC(OC)(C8)C7)c([N+](=O)[O-])c5)c(Oc5cnc6[nH]cc(F)c6c5)c3)C4)[C@H](c3ccccc3C(C)C)C2)cc1 equal to or greater than 2?
A. -1

Q. Please tell me: is the compound COc1ccc(CN2CCN(C3CC4(C3)CN(c3ccc(C(=O)NS(=O)(=O)c5ccc(NC[C@H]6CC[C@](C)(O)CC6)c([N+](=O)[O-])c5)c(Oc5cnc6[nH]cc(Cl)c6c5)c3)C4)[C@H](c3ccccc3C(C)C)C2)cc1OC at or over 2 in terms of Ratio of Bcl-2 D103Y/Bcl-2 WT?
A. -1

Q. # check: Ratio of Bcl-2 D103Y/Bcl-2 WT of CC(C)c1ccccc1C1CN(Cc2ccc(OC(F)(F)F)cc2)CCN1C1CC2(CCN(c3ccc(C(=O)NS(=O)(=O)c4ccc(NC[C@H]5CC[C@](C)(O)CC5)c([N+](=O)[O-])c4)c(Oc4cnc5[nH]ccc5c4)c3)CC2)C1 (stereo partly drawn) is greater than or equal to 2
A. 1

Q. For this compound, is measured Ratio of Bcl-2 D103Y/Bcl-2 WT 2 or higher? COc1cc(CN2CCN(C3CC4(C3)CN(c3ccc(C(=O)NS(=O)(=O)c5ccc(NC[C@H]6CC[C@](C)(O)CC6)c([N+](=O)[O-])c5)c(Oc5cnc6[nH]cc(F)c6c5)c3)C4)[C@H](c3ccccc3C(C)C)C2)ccc1C
A. -1

Q. Determine whether measured Ratio of Bcl-2 D103Y/Bcl-2 WT meets or exceeds 2 for COc1cc(CN2CCN(C3CC4(CCN(c5ccc(C(=O)NS(=O)(=O)c6ccc(NC[C@H]7CC[C@](C)(O)CC7)c([N+](=O)[O-])c6)c(Oc6cnc7[nH]cc(F)c7c6)c5)CC4)C3)[C@H](c3ccccc3C(C)C)C2)cc2ccoc12
A. -1

Q. For this compound, is measured Ratio of Bcl-2 D103Y/Bcl-2 WT 2 or higher? COc1cc(CN2CCN(C3CC4(C3)CN(c3ccc(C(=O)NS(=O)(=O)c5ccc(NC[C@H]6CC[C@](C)(O)CC6)c([N+](=O)[O-])c5)c(Oc5cnc6[nH]cc(F)c6c5)c3)C4)[C@H](c3ccccc3C(C)C)C2)ccc1C1COC1
A. -1

Q. Is reported Ratio of Bcl-2 D103Y/Bcl-2 WT greater than or equal to 2 here: CC(C)c1ccccc1C1CC(Oc2ccccc2)CCN1C1CC2(CCN(c3ccc(C(=O)NS(=O)(=O)c4ccc(NC[C@H]5CC[C@](C)(O)CC5)c([N+](=O)[O-])c4)c(Oc4cnc5[nH]ccc5c4)c3)CC2)C1 (stereo partly drawn)
A. 1

Q. Does the compound COc1cc(CN2CCN(C3CC4(CCN(c5ccc(C(=O)NS(=O)(=O)c6ccc(NC[C@H]7CC[C@](C)(O)CC7)c([N+](=O)[O-])c6)c(Oc6cnc7[nH]cc(F)c7c6)c5)CC4)C3)[C@H](c3ccccc3C(C)C)C2)cc2c1OCC2 have recorded Ratio of Bcl-2 D103Y/Bcl-2 WT that is 2 or more?
A. -1

Q. Assess whether reported Ratio of Bcl-2 D103Y/Bcl-2 WT for COc1cc(CN2CCN(C3CC4(C3)CN(c3ccc(C(=O)NS(=O)(=O)c5ccc(NC[C@H]6CC[C@](C)(O)CC6)c([N+](=O)[O-])c5)c(Oc5cnc6[nH]ccc6c5)c3)C4)[C@H](c3ccccc3C(C)C)C2)cc2cc(C)oc12 sits at 2 or higher.
A. 1
